These data points were gathered from patent US11214803B2.

tested on: Yap1 mRNA; assay: Antisense inhibition of human Yap1 in A-431 cells by cEt gapmers, single dose (Example 1, RTS4814); format: cell-based; details: Table 1; A-431 cells, free uptake, 2,000 nM, approximately 48 hours, RTS4814; Yap1 mRNA relative to untreated control cells
Strand notation (5' to 3'): a small letter for the sugar, then the base; units joined by * are phosphorothioate-linked, units joined directly phosphodiester-linked; [ ] holds rarer units or linkages, { } end groups; capitals alone tell only the bases. k = constrained ethyl (cEt); [5mC] = 5-methylcytosine; d = 2'-deoxy (DNA)
The following substances are shown together with reported YAP1 (% UTC) values.
assay_readout: YAP1 (% UTC)

715607 (antisense kT*k[5mC]*kA*d[5mC]*d[5mC]*dA*dT*dA*dG*d[5mC]*dA*d[5mC]*dA*kG*kA*kA) [Compound 715607] ... 116
715604 (antisense kT*kA*kG*d[5mC]*dA*d[5mC]*dA*dG*dA*dA*dT*dT*d[5mC]*k[5mC]*k[5mC]*kA) [Compound 715604] ... 107
715541 (k[5mC]*kT*kT*dG*dA*dA*dG*dA*dA*d[5mC]*dT*dA*dT*kT*kT*k[5mC]; antisense) [Compound 715541] ... 105
715451 (antisense k[5mC]*kA*kT*dT*dG*dT*dT*d[5mC]*dT*d[5mC]*dA*dA*dT*kT*k[5mC]*k[5mC]) [Compound 715451] ... 75
715532 (kT*kA*kA*d[5mC]*dA*dA*d[5mC]*d[5mC]*dT*dG*dG*dT*dT*kT*kG*kT; antisense) [Compound 715532] ... 91
715616 (antisense kG*kA*k[5mC]*dG*dG*dA*dT*dA*dA*dA*dA*dA*dT*kT*kA*k[5mC]) [Compound 715616] ... 95
715484 (antisense kT*kA*k[5mC]*dT*d[5mC]*dT*dT*dT*dG*dG*dA*dA*dA*k[5mC]*k[5mC]*kA) [Compound 715484] ... 123
715544 (k[5mC]*kA*kA*d[5mC]*dT*dA*d[5mC]*dT*dT*dG*dA*dA*dG*kA*kA*k[5mC]; antisense) [Compound 715544] ... 128
715529 (kT*kG*kA*dA*dA*d[5mC]*d[5mC]*dT*dG*dA*dT*d[5mC]*d[5mC]*kT*kT*kT; antisense) [Compound 715529] ... 148
715586 (kA*kA*kA*dA*dG*dG*dT*d[5mC]*dT*dG*dG*dA*dA*k[5mC]*kA*kG; antisense) [Compound 715586] ... 53
715433 (antisense kT*kG*kT*dT*d[5mC]*dT*dT*dA*dT*dG*dG*dT*dT*kT*kA*kT) [Compound 715433] ... 36
715547 (kG*kT*kT*dG*dA*d[5mC]*d[5mC]*dA*dA*d[5mC]*dT*dA*d[5mC]*kT*kT*kG; antisense) [Compound 715547] ... 98
715538 (k[5mC]*kT*kT*dT*dG*dT*dA*dA*d[5mC]*dT*dT*dA*dA*kA*kA*kG; antisense) [Compound 715538] ... 110

----------
The following substances are shown together with reported YAP1 (% UTC) values.
System: Yap1 mRNA
Test: Antisense inhibition of human Yap1 in A-431 cells by cEt gapmers, single dose (Example 3, RTS36584)
Assay type: cell-based
Settings: Table 35; Yap1 mRNA as percent of untreated control; 3-10-3 cEt gapmers targeting SEQ ID NO: 1 and 2; single dose
Procedure: Modified oligonucleotides were designed to target a Yap1 nucleic acid and were tested for their effect on Yap1 mRNA level in vitro. The modified oligonucleotides were tested in a series of experiments that had similar culture conditions. […] After a treatment period of approximately 48 hours, RNA was isolated from the cells and Yap1 mRNA levels were measured by quantitative real-time RTPCR. […] Yap1 mRNA levels were normalized to total RNA content, as measured by RIBOGREEN®. […]
Strand notation (5' to 3'): a small letter for the sugar, then the base; units joined by * are phosphorothioate-linked, units joined directly phosphodiester-linked; [ ] holds rarer units or linkages, { } end groups; capitals alone tell only the bases. k = constrained ethyl (cEt); [5mC] = 5-methylcytosine; d = 2'-deoxy (DNA)
assay_readout: YAP1 (% UTC)

1075477 (k[5mC]*kT*kT*dT*dA*dT*d[5mC]*dT*d[5mC]*dA*d[5mC]*dT*dA*kG*k[5mC]*kT; antisense) [compound 1075477] ... 86
1074421 (kT*kG*kA*dT*dT*d[5mC]*dT*dT*dT*dA*dG*dA*dG*k[5mC]*k[5mC]*kA; antisense) [compound 1074421] ... 3
1074805 (kG*kT*kA*dG*d[5mC]*dA*dA*dA*dG*dT*d[5mC]*dA*d[5mC]*kT*kT*k[5mC]; antisense) [compound 1074805] ... 9
1076533 (kA*kT*kT*dT*dT*dT*dA*dG*dT*d[5mC]*d[5mC]*dA*dG*kT*kG*kG; antisense) [compound 1076533] ... 9
1076085 (kA*k[5mC]*kT*dA*dA*dT*dA*dG*dG*d[5mC]*d[5mC]*dA*dT*k[5mC]*kT*kG; antisense) [compound 1076085] ... 7
1075925 (antisense kA*kA*k[5mC]*d[5mC]*dT*dA*dT*dA*dT*dT*dA*dT*dT*kT*kG*k[5mC]) [compound 1075925] ... 28
1076053 (kT*kA*k[5mC]*d[5mC]*dA*dA*d[5mC]*dA*dA*dG*dG*d[5mC]*dA*kT*k[5mC]*kA; antisense) [compound 1076053] ... 55
1076501 (k[5mC]*kA*kT*dA*dA*d[5mC]*dA*d[5mC]*dT*dT*dA*dA*dG*kG*kT*kG; antisense) [compound 1076501] ... 97
1074741 (kA*kA*kG*dG*dA*d[5mC]*dT*d[5mC]*dT*dT*dA*dG*dG*kT*k[5mC]*kT; antisense) [compound 1074741] ... 78
1075445 (antisense kT*kA*kT*dA*dA*dA*dT*d[5mC]*d[5mC]*dT*d[5mC]*dA*dT*kG*kT*kG) [compound 1075445] ... 84
1074613 (DNA k[5mC]*kA*kT*dA*dG*d[5mC]*dT*dT*dA*dT*dA*dT*dT*kG*kA*kA; antisense) [compound 1074613] ... 7
1076021 (k[5mC]*kA*kT*dT*dA*dA*dT*dA*dA*dA*dG*dT*dT*kA*k[5mC]*k[5mC]; antisense) [compound 1076021] ... 95

----------
system: Yap1 mRNA; assay: Antisense inhibition of human Yap1 in SNU-449 cells by modified oligonucleotides, single dose (Example 5, RTS36584); format: cell-based; conditions: Table 52; Yap1 mRNA, modified oligonucleotides targeting SEQ ID NO: 1 and 2
Strand notation (5' to 3'): a small letter for the sugar, then the base; units joined by * are phosphorothioate-linked, units joined directly phosphodiester-linked; [ ] holds rarer units or linkages, { } end groups; capitals alone tell only the bases. k = constrained ethyl (cEt); [5mC] = 5-methylcytosine; d = 2'-deoxy (DNA); m = 2'-O-methyl
The following substances are shown together with reported YAP1 (% UT) values.
assay_readout: YAP1 (% UT)

1200790 (kT*kG*kG*dA*dA*mA*dT*dT*dG*dT*d[5mC]*dT*d[5mC]*kA*kT*kG; antisense) [Compound 1200790] ... 33
1200868 (kT*kA*kA*dG*dT*mA*dA*dG*dG*dT*dT*dT*d[5mC]*k[5mC]*k[5mC]*kA; antisense) [Compound 1200868] ... 36
1200804 (kA*kG*kG*dT*dA*mU*dA*dA*d[5mC]*dT*dG*dG*dG*k[5mC]*kA*kA; antisense) [Compound 1200804] ... 44
1200869 (k[5mC]*kT*kA*dA*dG*mU*dA*dA*dG*dG*dT*dT*dT*k[5mC]*k[5mC]*k[5mC]; antisense) [Compound 1200869] ... 25
1200860 (kT*kA*kA*dA*dG*mU*dG*dT*dA*dT*dG*dT*d[5mC]*kA*kG*kA; antisense) [Compound 1200860] ... 16
1200854 (kT*kA*kT*dG*dT*mA*dA*dT*dA*dT*dT*dG*d[5mC]*kA*kA*kT; antisense) [Compound 1200854] ... 91
1200864 (kA*kA*k[5mC]*dT*dT*mU*dA*dA*dA*dG*dT*dG*dT*kA*kT*kG; antisense) [Compound 1200864] ... 84
1200865 (kT*kA*kA*dG*dG*mU*dT*dT*d[5mC]*d[5mC]*d[5mC]*dA*dG*kA*kT*kT; antisense) [Compound 1200865] ... 54

----------
test system: Yap1 mRNA; experiment: Antisense inhibition of human Yap1 in A-431 cells by cEt gapmers, single dose (Example 3, RTS36584); type: cell-based; conditions: Table 26; Yap1 mRNA by 3-10-3 cEt gapmers targeting SEQ ID NO.: 1, and 2; percent of untreated control
Strand notation (5' to 3'): a small letter for the sugar, then the base; units joined by * are phosphorothioate-linked, units joined directly phosphodiester-linked; [ ] holds rarer units or linkages, { } end groups; capitals alone tell only the bases. k = constrained ethyl (cEt); [5mC] = 5-methylcytosine; d = 2'-deoxy (DNA)
The following substances are shown together with reported YAP1 (% UTC) values.
assay_readout: YAP1 (% UTC)

1076556 (kG*kT*kA*dT*dA*dG*dG*d[5mC]*dA*dG*dA*dA*dG*k[5mC]*kA*kA; antisense) [compound 1076556] ... 9
1076044 (kA*kT*k[5mC]*dA*dA*dA*dA*dA*dG*dG*d[5mC]*dT*dA*kT*kT*kG; antisense) [compound 1076044] ... 73
1075212 (k[5mC]*kA*kA*dT*dA*dA*dA*dG*dG*dG*dT*d[5mC]*d[5mC]*kT*kA*kA; antisense) [compound 1075212] ... 76
1075820 (kT*k[5mC]*kT*dG*dA*dA*d[5mC]*dG*dG*dG*d[5mC]*dT*dG*kT*kT*kG; antisense) [compound 1075820] ... 27
1075468 (antisense k[5mC]*kA*k[5mC]*d[5mC]*dA*dA*dT*dA*d[5mC]*dT*dG*dA*dG*kT*kA*kT) [compound 1075468] ... 91
1075724 (k[5mC]*kT*kA*dT*d[5mC]*dT*dG*dT*d[5mC]*dA*dG*dT*dT*kA*kT*k[5mC]; antisense) [compound 1075724] ... 44
